# targetDesc: HLA-A*02:01 (Homo sapiens, UniProt P04439, D140Y/D185E/D98H/E176V/E277Q/G131W/G231S/I119V/I121R/I166T/I218V/L300P/L318F/N151K/N90K/P208A/P217A/Q86G/Q94H/R138H/R169H/T345S)
# testDescription: MHC binding assay (UV-ligand exchange, β2m ELISA, peptide exchange yield)
# assayConditions: MHC class I binding score; binding to HLA-A*02:01 ranged by peptide exchange yield (UV-ligand exchange, β2m ELISA)
# Description: Candidate peptides for T cell based therapies according to the present invention were further tested for their MHC binding capacity (affinity). The individual peptide-MHC complexes were produced by UV-ligand exchange, where a UV-sensitive peptide is cleaved upon UV-irradiation, and exchanged with the peptide of interest as analyzed. Only peptide candidates that can effectively bind and stabilize the peptide-receptive MHC molecules prevent dissociation of the MHC complexes. […]
valueType: Peptide exchange

# input Tell me the measured Peptide exchange of 287 (FLNEFFLNV; listed as Homo sapiens) [compound 287] , please.
# output “+++” (≧50 = +++)

# input And what about the substance 403 (KLYDRILRV; listed as Homo sapiens) [compound 403] ?
# output “++” (≧20% = ++)

# input And what about the substance 600 (ALAAPDIVPAL; listed as Homo sapiens) [compound 600] ?
# output “+++” (≧50 = +++)

# input And what about the substance 608 (SLLSVSHAL; listed as Homo sapiens) [compound 608] ?
# output “+++” (≧50 = +++)

# input And what about the substance 201 (RLVDYLEGI; listed as Homo sapiens) [compound 201] ?
# output “+++” (≧50 = +++)

***
# input Tell me the measured Peptide exchange of 195 (GLFADLLPRL; listed as Homo sapiens) [compound 195] , please.
# output “+++” (≧50 = +++)

# input And what about the substance 272 (ALGNTVPAV; listed as Homo sapiens) [compound 272] ?
# output “+++” (≧50 = +++)

# input And what about the substance 187 (RQISIRGIVGV; listed as Homo sapiens) [compound 187] ?
# output “+++” (≧50 = +++)

# input And what about the substance 227 (ALMNTLLYL; listed as Homo sapiens) [compound 227] ?
# output “++” (≧20% = ++)

# input And what about the substance 250 (ALSEEGLLVYL; listed as Homo sapiens) [compound 250] ?
# output “+++” (≧50 = +++)

====

# targetDesc: HLA-A*02:01 (Homo sapiens, UniProt P04439, D140Y/D185E/D98H/E176V/E277Q/G131W/G231S/I119V/I121R/I166T/I218V/L300P/L318F/N151K/N90K/P208A/P217A/Q86G/Q94H/R138H/R169H/T345S)
# testDescription: MHC binding assay (UV-ligand exchange, β2m ELISA, peptide exchange yield)
# assayConditions: MHC class I binding score; binding to HLA-A*02:01 ranged by peptide exchange yield (UV-ligand exchange, β2m ELISA)
valueType: Peptide exchange

// worked examples, Peptide exchange included
# input Tell me the measured Peptide exchange of 315 (YLQDVVEQA; listed as Homo sapiens) [compound 315] , please.
# output “+++” (≧50 = +++)

# input And what about the substance 576 (ILLNNSGQIKL; listed as Homo sapiens) [compound 576] ?
# output “++++” (≧75% = ++++)

# input And what about the substance 95 (SVIPQIQKV; listed as Homo sapiens) [compound 95] ?
# output “+++” (≧50 = +++)

# input And what about the substance 200 (LLFGSVQEV; listed as Homo sapiens) [compound 200] ?
# output “+++” (≧50 = +++)

# input And what about the substance 88 (FLLVGDLMAV; listed as Homo sapiens) [compound 88] ?
# output “+++” (≧50 = +++)

***
# input Tell me the measured Peptide exchange of 21 (VLDELDMEL; listed as Homo sapiens) [compound 21] , please.
# output “++” (≧20% = ++)

# input And what about the substance 175 (YLFENISQL; listed as Homo sapiens) [compound 175] ?
# output “+++” (≧50 = +++)

====

# targetDesc: HLA-A*02:01 (Homo sapiens, UniProt P04439, D140Y/D185E/D98H/E176V/E277Q/G131W/G231S/I119V/I121R/I166T/I218V/L300P/L318F/N151K/N90K/P208A/P217A/Q86G/Q94H/R138H/R169H/T345S)
# testDescription: MHC binding assay (UV-ligand exchange, β2m ELISA, peptide exchange yield)
# assayConditions: MHC class I binding score; binding to HLA-A*02:01 ranged by peptide exchange yield (UV-ligand exchange, β2m ELISA)
valueType: Peptide exchange

# input Tell me the measured Peptide exchange of 613 (RLLPPGAVVAV; listed as Homo sapiens) [compound 613] , please.
# output “+++” (≧50 = +++)

# input And what about the substance 401 (ILLDDTGLAYI; listed as Homo sapiens) [compound 401] ?
# output “+++” (≧50 = +++)

# input And what about the substance 232 (ALLEAQDVELYL; listed as Homo sapiens) [compound 232] ?
# output “++” (≧20% = ++)

# input And what about the substance 261 (YVLEFLEEI; listed as Homo sapiens) [compound 261] ?
# output “++” (≧20% = ++)

Let us move to another entry and its Peptide exchange.
# input Tell me the measured Peptide exchange of 570 (ALANQIPTV; listed as Homo sapiens) [compound 570] , please.
# output “++” (≧20% = ++)

====

# targetDesc: HLA-A*02:01 (Homo sapiens, UniProt P04439, D140Y/D185E/D98H/E176V/E277Q/G131W/G231S/I119V/I121R/I166T/I218V/L300P/L318F/N151K/N90K/P208A/P217A/Q86G/Q94H/R138H/R169H/T345S)
# testDescription: MHC binding assay (UV-ligand exchange, β2m ELISA, peptide exchange yield)
# assayConditions: MHC class I binding score; binding to HLA-A*02:01 ranged by peptide exchange yield (UV-ligand exchange, β2m ELISA)
valueType: Peptide exchange

// worked examples, Peptide exchange included
# input Tell me the measured Peptide exchange of 393 (GLLDTQTSQVLTA; listed as Homo sapiens) [compound 393] , please.
# output “++” (≧20% = ++)

# input And what about the substance 7 (SLVGLLLYL; listed as Homo sapiens) [compound 7] ?
# output “++++” (≧75% = ++++)

# input And what about the substance 15 (VLLTFKIFL; listed as Homo sapiens) [compound 15] ?
# output “++” (≧20% = ++)

# input And what about the substance 307 (ALPVSLPQI; listed as Homo sapiens) [compound 307] ?
# output “+++” (≧50 = +++)

# input And what about the substance 322 (TLMTSLPAL; listed as Homo sapiens) [compound 322] ?
# output “+++” (≧50 = +++)

# input And what about the substance 278 (QLLDVVLTI; listed as Homo sapiens) [compound 278] ?
# output “++” (≧20% = ++)

***
# input Tell me the measured Peptide exchange of 18 (YLVAKLVEV; listed as Homo sapiens) [compound 18] , please.
# output “++” (≧20% = ++)

# input And what about the substance 235 (YLNDLHEVLL; listed as Homo sapiens) [compound 235] ?
# output “++++” (≧75% = ++++)

# input And what about the substance 434 (KVSNSGITRV; listed as Homo sapiens) [compound 434] ?
# output “++” (≧20% = ++)

# input And what about the substance 264 (SLQEQLHSV; listed as Homo sapiens) [compound 264] ?
# output “+++” (≧50 = +++)

# input And what about the substance 369 (GLFPEHLIDV; listed as Homo sapiens) [compound 369] ?
# output “+++” (≧50 = +++)

====

# targetDesc: HLA-A*02:01 (Homo sapiens, UniProt P04439, D140Y/D185E/D98H/E176V/E277Q/G131W/G231S/I119V/I121R/I166T/I218V/L300P/L318F/N151K/N90K/P208A/P217A/Q86G/Q94H/R138H/R169H/T345S)
# testDescription: MHC binding assay (UV-ligand exchange, β2m ELISA, peptide exchange yield)
# assayConditions: MHC class I binding score; binding to HLA-A*02:01 ranged by peptide exchange yield (UV-ligand exchange, β2m ELISA)
valueType: Peptide exchange

# input Tell me the measured Peptide exchange of 326 (FLPEALDFV; listed as Homo sapiens) [compound 326] , please.
# output “+++” (≧50 = +++)

# input And what about the substance 199 (ALQDVPLSSV; listed as Homo sapiens) [compound 199] ?
# output “+++” (≧50 = +++)

# input And what about the substance 149 (NLLELFVQL; listed as Homo sapiens) [compound 149] ?
# output “+++” (≧50 = +++)

# input And what about the substance 229 (RLPGPLGTV; listed as Homo sapiens) [compound 229] ?
# output “++” (≧20% = ++)

# input And what about the substance 209 (KLIESKHEV; listed as Homo sapiens) [compound 209] ?
# output “++” (≧20% = ++)

***
# input Tell me the measured Peptide exchange of 486 (AVMESIQGV; listed as Homo sapiens) [compound 486] , please.
# output “+++” (≧50 = +++)

# input And what about the substance 361 (ALYELEGTTV; listed as Homo sapiens) [compound 361] ?
# output “+++” (≧50 = +++)

# input And what about the substance 442 (GLLGGGGVLGV; listed as Homo sapiens) [compound 442] ?
# output “+++” (≧50 = +++)

# input And what about the substance 130 (FLWNGEDSALL; listed as Homo sapiens) [compound 130] ?
# output “+++” (≧50 = +++)

# input And what about the substance 186 (TLFFQQNAL; listed as Homo sapiens) [compound 186] ?
# output “++” (≧20% = ++)

Hey, just so you know, these numbers are from patent US20170002055A1.
